- TARGET OF ASSAY: Cytochrome P450 2C9 (Homo sapiens)
- ASSAY NAME: blockers of cytochrome P450 2C9 activity – biochemical, luminescence, ADME assay, primary screen (AID 777)
- TEST PARAMETERS: CYP2C9 Supersomes, luciferin-H conversion, at 5 µM, hits give high values
The campaign covered roughly 96,000 compounds. About 19,000 (20%) were called active. The list is a sample of the results.
Consider the following compounds; for each one, report its inhibition.
Give the quantity in %, number only.

Q: What does the record list as inhibition for Cc1ccnc(N2CCN(C(=O)CSc3nc4ccccc4nc3N3CCCCC3)CC2)c1 ?
Result: 98.5

Q: What does the record list as inhibition for C=CCOc1cccc(CNn2cn[nH]c2=S)c1 ?
Result: -16.1

Q: What does the record list as inhibition for O=S(=O)(c1cnccc1N1CCN(/N=C/c2ccc(Br)cc2)CC1)N1CCCCC1 ?
Result: -9.2

Q: What does the record list as inhibition for Cc1ccc(S(=O)(=O)NCC(=O)N2CCN(c3ccccn3)CC2)cc1 ?
Result: 5.3

Q: What does the record list as inhibition for Cc1ccc2oc(=O)c3cnn(CC(=O)N4CCN(c5ccccn5)CC4)c3c2c1 ?
Result: 20.1

###

- TARGET OF ASSAY: Cytochrome P450 2C9 (Homo sapiens) (UniProt P11712)
- Sequence (P11712 whole entry, looked up): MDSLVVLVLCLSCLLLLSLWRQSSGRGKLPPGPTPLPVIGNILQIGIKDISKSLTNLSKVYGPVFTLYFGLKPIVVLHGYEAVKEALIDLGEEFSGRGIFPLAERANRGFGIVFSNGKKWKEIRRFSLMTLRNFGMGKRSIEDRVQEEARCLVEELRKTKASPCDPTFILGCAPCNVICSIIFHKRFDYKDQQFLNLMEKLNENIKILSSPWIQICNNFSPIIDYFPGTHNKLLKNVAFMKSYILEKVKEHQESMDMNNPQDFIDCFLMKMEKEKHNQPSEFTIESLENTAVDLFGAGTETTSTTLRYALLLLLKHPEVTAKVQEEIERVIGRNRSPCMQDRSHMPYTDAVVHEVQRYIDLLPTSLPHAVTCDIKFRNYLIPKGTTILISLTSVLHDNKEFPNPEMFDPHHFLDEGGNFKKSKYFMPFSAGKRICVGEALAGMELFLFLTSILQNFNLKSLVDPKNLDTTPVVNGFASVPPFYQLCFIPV
- ASSAY NAME: blockers of cytochrome P450 2C9 activity – biochemical, luminescence, ADME assay, primary screen (AID 777)
- TEST PARAMETERS: CYP2C9 Supersomes, luciferin-H conversion, at 5 µM
Hit rate of the full screen: of about 96,000 compounds, about 19,000 (20%) were called active.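 Rule for the calls: active = blocking of liver enzyme CYP2C9 beyond about 50% at 5 µM (limit read from the data); inactive = the rest.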 The list is a sample of the results.
Write down one outcome, taken from y = active, n = inactive

Q: Please let me know the test result on file for CCCOc1ccc(C2NC(=O)NC(c3ccccc3)=C2C(C)=O)cc1OCC (configuration not stated) .
Result: n

Q: Please let me know the test result on file for COC(=O)[C@H](C)NC(=O)Nc1ccc(OC(F)(F)F)cc1 .
Result: n

Q: Please let me know the test result on file for COc1ccc(S(=O)(=O)N2CCCC2)c(C)c1C .
Result: n

Q: Please let me know the test result on file for Cc1nc2nc(COc3ccccc3)[nH]n2c(=O)c1C .
Result: n

Q: Please let me know the test result on file for COC(=O)C(C)N(C#N)c1nc(C)nc(C)n1 (configuration not stated) .
Result: n

Q: Please let me know the test result on file for CCC(=O)Nc1nc2ccccc2n1Cc1ccccc1C .
Result: n

Q: Please let me know the test result on file for CC(C)CCOc1ccc(C(=O)C[N+]2(C)CCOCC2)cc1 .
Result: n

Q: Please let me know the test result on file for Cc1cccc(NC(=O)Cn2cc(C(=O)c3ccco3)c3ccccc32)c1 .
Result: n

Q: Please let me know the test result on file for COc1ccc(C2C(C#N)=C(N)Oc3n[nH]c(C)c32)cc1CN1CCN(c2ccc(F)cc2)CC1 (configuration not stated) .
Result: n

Q: Please let me know the test result on file for Cc1ccc(NS(=O)(=O)c2c(C)[nH]c(=O)[nH]c2=O)cc1C .
Result: n

Q: Please let me know the test result on file for CC(=O)C1C(c2cccc(Oc3ccccc3)c2)NC(=O)NC1(O)C(F)(F)F (configuration not stated) .
Result: n

Q: Please let me know the test result on file for COc1ccc(S(=O)(=O)Nc2ccc(F)cc2)c(C)c1C .
Result: y

Q: Please let me know the test result on file for O=C(CN1C(=O)NC2(CCCC2)C1=O)Nc1ccc(F)c(F)c1F .
Result: n

Q: Please let me know the test result on file for Cc1cccc(C(=O)Nc2nnc(Cc3c[nH]c4ccccc34)s2)c1 .
Result: n

Q: Please let me know the test result on file for Nc1c(C(=O)NCc2ccccc2)sc2nc3c(cc12)C(=O)CCC3 .
Result: n

Q: Please let me know the test result on file for Cc1c(Nc2nc3ccccc3nc2NS(=O)(=O)c2cccs2)c(=O)n(-c2ccccc2)n1C .
Result: n

Q: Please let me know the test result on file for CCOC(=O)c1ccn(-c2nc(-c3ccco3)cc(C(F)(F)F)n2)n1 .
Result: y

Q: Please let me know the test result on file for O=C(Nc1ccc(Br)cc1)c1cccc(NC(=O)C2C3CC4OC(=O)C2C4C3)c1 (configuration not stated) .
Result: y

Q: Please let me know the test result on file for Cc1cc(C(F)(F)F)nn1-c1nc(-c2ccco2)cc(C(F)(F)F)n1 .
Result: n

Q: Please let me know the test result on file for CS(=O)(=O)Nc1ccc(C(=O)N2CCCC2)cc1 .
Result: n

Q: Please let me know the test result on file for Cc1ccccc1OCC(=O)NCC(=O)OCC(=O)c1ccc2ccccc2c1 .
Result: n

Q: Please let me know the test result on file for COc1ccc(-c2[nH]nc(-c3ccccc3)c2-c2nc3ccccc3[nH]2)cc1 .
Result: n

###

- TARGET OF ASSAY: Cytochrome P450 2C9 (Homo sapiens) (UniProt P11712)
- ASSAY NAME: blockers of cytochrome P450 2C9 activity – biochemical, luminescence, ADME assay, primary screen (AID 777)
- TEST PARAMETERS: CYP2C9 Supersomes, luciferin-H conversion, at 5 µM
Screen size: about 96,000 compounds; about 19,000 (20%) were called active.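 How the source made its calls: active means blocking of liver enzyme CYP2C9 beyond about 50% at 5 µM (limit read from the data); inactive means the rest.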 These entries were drawn from the full list.
Write down one outcome, taken from 1 (yes) for active, 0 (no) for inactive

Q: Please let me know the test result on file for c1ccc(CSc2ncnc3c2sc2nc(N4CCOCC4)c4c(c23)CCCC4)cc1 .
Result: 0 (no)

Q: Please let me know the test result on file for COc1ccc2c(c1)cc1n2CCN=C1NN .
Result: 0 (no)

Q: Please let me know the test result on file for CCCN(Cc1cc2cccc(C)c2[nH]c1=O)S(C)(=O)=O .
Result: 0 (no)

Q: Please let me know the test result on file for CCC1=C(C(=O)OC)C(c2cc(OC)ccc2OC)C(C#N)=C(N)O1 (stereo unspecified) .
Result: 1 (yes)

Q: Please let me know the test result on file for O=C(CCc1ccccc1)Nc1ccc(NC(=O)C2CC2)nc1 .
Result: 0 (no)

Q: Please let me know the test result on file for CCCC(C(=O)NCc1ccco1)N(C(=O)CNS(=O)(=O)c1ccccc1)C1CCCC1 (stereo unspecified) .
Result: 0 (no)

###

- TARGET OF ASSAY: Cytochrome P450 2C9 (Homo sapiens) (UniProt P11712)
- ASSAY NAME: blockers of cytochrome P450 2C9 activity – biochemical, luminescence, ADME assay, primary screen (AID 777)
- TEST PARAMETERS: CYP2C9 Supersomes, luciferin-H conversion, at 5 µM, hits give high values
Among all 96,000 compounds or so, about 19,000 (20%) were called active. The list is a sample of the results.
ENDPOINT NAME: inhibition (%)
Give the quantity in %, number only.

Q: What does the record list as inhibition for O=C(NCc1ccco1)C1CCCN(S(=O)(=O)c2cnc[nH]2)C1 (stereo not given) ?
Result: 27.3

Q: What does the record list as inhibition for COc1ccc(CNC(=O)CCn2cccc2)cc1 ?
Result: 20.4

Q: What does the record list as inhibition for O=C(CC1OC(=O)c2ccccc21)NC1CCCCC1 (stereo not given) ?
Result: -99.1

Q: What does the record list as inhibition for C=CCn1c(SCC(=O)c2c(N)n(C)c(=O)n(C)c2=O)nc2sc(CC)cc2c1=O ?
Result: 38.3

Q: What does the record list as inhibition for Cc1[nH][nH]c(=O)c1N=Nc1ccccc1 ?
Result: 25.4

Q: What does the record list as inhibition for CC12c3ccccc3C(c3ccccc31)C1C(=O)N(Cc3cccnc3)C(=O)C12 (stereo not given) ?
Result: 20.2

Q: What does the record list as inhibition for CCN(CC)C(=O)CSc1nnc(CNc2ccc(F)cc2)n1Cc1ccco1 ?
Result: -8.3

Q: What does the record list as inhibition for Cc1ccccc1OC(=O)Cn1c(C(F)(F)F)nc2ccccc21 ?
Result: 30.1

Q: What does the record list as inhibition for CCn1c(SCC(=O)Nc2nc(C)cs2)nnc1C(C)NC(=O)c1ccccc1 (stereo not given) ?
Result: 21.2

Q: What does the record list as inhibition for COc1ccc(C2=NOC(C(=O)NCc3ccco3)C2)cc1OC (stereo not given) ?
Result: -31.2

Q: What does the record list as inhibition for CN1/C(=C\C=C2\N=C(c3ccc(F)cc3)OC2=O)C(C)(C)c2ccccc21 ?
Result: 64.7

Q: What does the record list as inhibition for O=C(Oc1ccc([N+](=O)[O-])cc1)c1ccc2ccccc2n1 ?
Result: -28.9

Q: What does the record list as inhibition for O=C1OC(c2ccc(Cl)cc2)=N/C1=C\c1cccnc1 ?
Result: 18.2

Q: What does the record list as inhibition for COc1cccc(N2CCN(C(=O)C3CCCN(S(=O)(=O)c4cnc[nH]4)C3)CC2)c1 (stereo not given) ?
Result: 36.6

Q: What does the record list as inhibition for CCSc1ccccc1C(=O)NCc1ccc(OC)cc1 ?
Result: 53.8

Q: What does the record list as inhibition for Cc1ccsc1/C=C1\SC(N2CCOCC2)=NC1=O ?
Result: -18

Q: What does the record list as inhibition for COCCN(C(=O)CCC(=O)Nc1ccccn1)C(C(=O)NCCC(C)C)c1ccc(OC)cc1 (stereo not given) ?
Result: 52

Q: What does the record list as inhibition for Cc1ccc(CNC(=O)C2CC(c3ccccc3[N+](=O)[O-])=NO2)o1 (stereo not given) ?
Result: -18.8

Q: What does the record list as inhibition for O=C(CC1NCCNC1=O)Nc1ccc(Oc2ccccc2)cc1 (stereo not given) ?
Result: 1.6

Q: What does the record list as inhibition for O=C(CN(c1ccc2c(c1)OCCO2)S(=O)(=O)c1ccccc1)Nc1ccc2c(c1)OCO2 ?
Result: 92.2

Q: What does the record list as inhibition for COC(=O)CN(c1cccc(C(C)=O)c1)S(C)(=O)=O ?
Result: 40.7

Q: What does the record list as inhibition for COc1ccc(Cl)cc1C(=O)NCc1cn(C)nc1C ?
Result: 1.3

Q: What does the record list as inhibition for Cc1ccc2nc(-c3ccccc3)cc(C(=O)O)c2c1 ?
Result: 34.4

Q: What does the record list as inhibition for CCOc1ccc(NC(=O)CC2NCCNC2=O)cc1 (stereo not given) ?
Result: -7

Q: What does the record list as inhibition for CC(=O)Cc1nsc(NC(=O)c2csc3c2CCCC3)n1 ?
Result: 30

Q: What does the record list as inhibition for O=c1cc(-c2ccccc2)nc(N2CCCCC2)[nH]1 ?
Result: -5.8

Q: What does the record list as inhibition for COc1ccc(C(C(=O)NCc2ccccc2)N(Cc2cccs2)C(=O)c2cnccn2)cc1 (stereo not given) ?
Result: 34

Q: What does the record list as inhibition for COc1ccc2[nH]c(=O)c(CNc3ccc(C)c(C)c3)cc2c1 ?
Result: 24

Q: What does the record list as inhibition for CC(=O)Nc1ccc(N2C(=O)C3C4CC(=O)C(c5ccccc54)C3C2=O)cc1 (stereo not given) ?
Result: -8.5

Q: What does the record list as inhibition for COc1cc(OC)nc(NC(=O)CCl)n1 ?
Result: -14.2

Q: What does the record list as inhibition for Cc1cccc2cc(CN(Cc3nnnn3Cc3ccccc3)C3CCCC3)c(=O)[nH]c12 ?
Result: 91.5

Q: What does the record list as inhibition for CCN(CC)C(=O)CSC1c2ccccc2C(=O)N1c1ccccc1 (stereo not given) ?
Result: -6.2

Q: What does the record list as inhibition for CCCN(CCC)CCNC(=O)c1cc2c(C)nc3ccccc3c2o1 ?
Result: 8.6

Q: What does the record list as inhibition for NC(CSC12CC3CC(CC(C3)C1)C2)C(=O)O (stereo not given) ?
Result: 9.2

Q: What does the record list as inhibition for CCn1cc(C(=O)N/N=C(/C)c2ccc(F)cc2)c(=O)c2cc(F)c(N3CCCC3)cc21 ?
Result: 5.7

Q: What does the record list as inhibition for Cc1cccc(S(=O)(=O)CC(=O)Nc2nc(-c3ccccc3)cs2)c1 ?
Result: 91.4

Q: What does the record list as inhibition for CCCOC(=O)C1=C(C)NC2=C(C(=O)C(C(=O)OC)C(C)C2)C1c1ccc(N(C)C)cc1 (stereo not given) ?
Result: 18.1

Q: What does the record list as inhibition for O=C(NCCN=C1NS(=O)(=O)c2ccccc21)c1ccc(S(=O)(=O)N2CCOCC2)cc1 ?
Result: 46.2

Q: What does the record list as inhibition for Cc1cc(C)c2cc(CN(Cc3nnnn3Cc3ccc(F)cc3)C3CCCC3)c(=O)[nH]c2c1 ?
Result: -7.2

Q: What does the record list as inhibition for CCCc1ccc(-c2csc(NC(=O)Cc3cccs3)n2)cc1 ?
Result: 42.2

Q: What does the record list as inhibition for CCOC(=O)c1cccc(NC(=O)C2CCCN(S(=O)(=O)c3cnc[nH]3)C2)c1 (stereo not given) ?
Result: 95.6

Q: What does the record list as inhibition for COc1ccc(C(=O)/C=C/Nc2ccccn2)cc1 ?
Result: -6.6

Q: What does the record list as inhibition for Cc1ccc(NC(=S)NC(=O)c2ccc(-c3ccccc3)cc2)c(C)c1 ?
Result: 19

Q: What does the record list as inhibition for CC(=O)NC1=NC(=O)CS1 ?
Result: 11.7

Q: What does the record list as inhibition for Fc1ccccc1/C=C1\CCCC2=C1Nc1ncnn1C2c1ccccc1F (stereo not given) ?
Result: 43.9
